pIC50: −log10 of the molar value.
measured.metric: pIC50

Request: Output reported pIC50 of the molecule `N#Cc1ccc2c(c1)N/C(=C\C(=O)c1cccc3ccccc13)C(=O)N2` on Epithelial discoidin domain-containing receptor 1 (Homo sapiens, UniProt Q08345).
Sequence (Q08345 whole entry, the tested form may be a part): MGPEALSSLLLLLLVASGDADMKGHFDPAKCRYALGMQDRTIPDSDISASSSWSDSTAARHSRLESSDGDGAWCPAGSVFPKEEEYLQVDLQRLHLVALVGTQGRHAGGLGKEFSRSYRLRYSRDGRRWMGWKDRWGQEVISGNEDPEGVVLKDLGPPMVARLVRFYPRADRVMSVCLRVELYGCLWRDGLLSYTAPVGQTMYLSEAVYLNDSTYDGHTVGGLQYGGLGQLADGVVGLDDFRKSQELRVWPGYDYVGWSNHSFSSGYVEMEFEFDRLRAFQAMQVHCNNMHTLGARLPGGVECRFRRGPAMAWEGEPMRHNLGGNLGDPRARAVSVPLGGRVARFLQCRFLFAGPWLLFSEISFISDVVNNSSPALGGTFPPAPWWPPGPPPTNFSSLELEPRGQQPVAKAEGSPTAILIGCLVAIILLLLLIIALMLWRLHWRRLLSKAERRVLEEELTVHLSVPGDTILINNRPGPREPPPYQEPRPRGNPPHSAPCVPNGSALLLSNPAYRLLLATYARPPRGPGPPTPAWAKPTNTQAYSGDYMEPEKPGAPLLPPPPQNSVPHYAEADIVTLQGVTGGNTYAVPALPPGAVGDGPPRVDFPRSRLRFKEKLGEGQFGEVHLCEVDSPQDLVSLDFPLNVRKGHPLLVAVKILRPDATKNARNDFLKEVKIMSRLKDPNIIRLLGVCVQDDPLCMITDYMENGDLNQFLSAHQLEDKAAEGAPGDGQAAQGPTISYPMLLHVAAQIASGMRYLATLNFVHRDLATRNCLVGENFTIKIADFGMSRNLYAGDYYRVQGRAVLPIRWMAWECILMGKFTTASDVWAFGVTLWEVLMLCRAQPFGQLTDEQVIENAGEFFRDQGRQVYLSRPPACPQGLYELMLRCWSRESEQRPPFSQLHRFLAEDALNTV
Response: < 5.00

###

# assayed.system: Mitogen-activated protein kinase 10 (Homo sapiens, UniProt P53779)
# Sequence (P53779 whole entry): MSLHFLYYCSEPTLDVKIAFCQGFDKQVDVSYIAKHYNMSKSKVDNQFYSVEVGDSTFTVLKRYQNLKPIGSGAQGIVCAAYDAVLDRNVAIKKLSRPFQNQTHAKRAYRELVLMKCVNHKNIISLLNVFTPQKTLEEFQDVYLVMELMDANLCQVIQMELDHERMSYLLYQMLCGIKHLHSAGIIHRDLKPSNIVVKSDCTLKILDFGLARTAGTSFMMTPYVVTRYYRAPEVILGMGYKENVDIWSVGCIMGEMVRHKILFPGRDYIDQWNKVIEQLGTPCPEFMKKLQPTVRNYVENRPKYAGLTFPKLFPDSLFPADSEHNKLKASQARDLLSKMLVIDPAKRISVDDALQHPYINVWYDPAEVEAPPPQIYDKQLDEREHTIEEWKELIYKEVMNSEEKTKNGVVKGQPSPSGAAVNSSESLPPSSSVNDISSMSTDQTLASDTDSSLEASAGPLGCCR
# assay.method.text: Inhibition of human JNK3 after 40 mins by [gamma-33ATP] radiometric assay relative to control
Field: pIC50. Provide a value for each of the compounds that follow.
In simple prose, pIC50 is minus the logarithm base ten of a concentration in moles per litre.

Request: Using the record for `O=C1Nc2ccccc2N/C1=C\C(=O)c1ccccc1Cl` , state its measured pIC50.
Response: 6.39

Request: // fetch pIC50 given entry `COc1ccccc1C(=O)/C=C1\Nc2ccccc2NC1=O`
Response: 5.84

Request: Let me know recorded pIC50 for `N#Cc1ccc2c(c1)N/C(=C\C(=O)c1ccccc1Cl)C(=O)N2` , thanks.
Response: 5.77

Request: Fill in pIC50 for record `O=C1Nc2ccccc2N/C1=C\C(=O)c1cccc(Cl)c1`
Response: 6.43
